B1: TFE3 (parent)
chain: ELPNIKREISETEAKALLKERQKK

- Variants of: B1
- ASSAY_DETAILS: protein stability index of a GFP-peptide fusion (GPS, HEK-293T) (PSI 1-6); higher = more stable;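 further: lentivirally expressed fusions sorted by FACS into six bins by GFP to DsRed ratio, PSI derived from sequencing read proportions per bin multiplied by bin number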
- CONDITION_NOTES: c terminus: a fixed tail appended
Recorded protein stability index for the following variants
# answer = number (no unit)

[
  {
    "VARIANT_SPEC": "N4Q",
    "protein stability index": 2.02
  },
  {
    "VARIANT_SPEC": "E11R",
    "protein stability index": 2.5
  },
  {
    "VARIANT_SPEC": "E20S",
    "protein stability index": 2.67
  },
  {
    "VARIANT_SPEC": "A14T",
    "protein stability index": 2
  }
]

Prompt line: Identify measured protein stability index associated with "K19N"
Response line: 2.57

Prompt line: Identify measured protein stability index associated with "R21D"
Response line: 2.88
